Entry source: paper PMC7312527

target: BuChE from equine serum (Equus caballus); assay: biochemical; details: IC50(AChE)/IC50(BuChE)
Give met when the value for Selectivity for BuChE is at least 3. Give not met when it is less.

{"input.smiles": "O=C(NCCCCNc1c2c(nc3ccccc13)CCCC2)c1cc(Cl)cc(Cl)c1", "category": "not met"}
{"input.smiles": "Cl.O=C(NCCNc1c2c(nc3ccccc13)CCCC2)c1cc(Cl)cc(Cl)c1", "category": "met"}
{"input.smiles": "O=C(NCCCNc1c2c(nc3ccccc13)CCCC2)c1cc(Cl)cc(Cl)c1", "category": "met"}
{"input.smiles": "O=C(NCCCCCCCNc1c2c(nc3ccccc13)CCCC2)c1cc(Cl)cc(Cl)c1", "category": "met"}
{"input.smiles": "O=C(NCCCCCCCCNc1c2c(nc3ccccc13)CCCC2)c1cc(Cl)cc(Cl)c1", "category": "not met"}

Query: Quick check, Selectivity for BuChE >= 3? O=C(NCCCCCCCCCNc1c2c(nc3ccccc13)CCCC2)c1cc(Cl)cc(Cl)c1
Reply: not met

###

experiment: in vitro; assay type: cell-based; settings: human, human hepatic stellate cells (HSCs); HSCs, 10 µM, 24 h; read-out: hepatotoxicity (MTT; cell viability as percentage of control)
measured.attribute: viability at 24 h, 10 µM

Query: viability at 24 h, 10 µM for O=C(NCCCCNc1c2c(nc3ccccc13)CCCC2)c1cc(Cl)cc(Cl)c1 ?
Reply: 87.4%

###

# IC50 annotations
target: BuChE from equine serum (Equus caballus, UniProt P81908); assay: biochemical; conditions: means ± SD of three independent experiments; read-out: EqBuChE IC50 ± SD
Sequence (P81908 whole entry): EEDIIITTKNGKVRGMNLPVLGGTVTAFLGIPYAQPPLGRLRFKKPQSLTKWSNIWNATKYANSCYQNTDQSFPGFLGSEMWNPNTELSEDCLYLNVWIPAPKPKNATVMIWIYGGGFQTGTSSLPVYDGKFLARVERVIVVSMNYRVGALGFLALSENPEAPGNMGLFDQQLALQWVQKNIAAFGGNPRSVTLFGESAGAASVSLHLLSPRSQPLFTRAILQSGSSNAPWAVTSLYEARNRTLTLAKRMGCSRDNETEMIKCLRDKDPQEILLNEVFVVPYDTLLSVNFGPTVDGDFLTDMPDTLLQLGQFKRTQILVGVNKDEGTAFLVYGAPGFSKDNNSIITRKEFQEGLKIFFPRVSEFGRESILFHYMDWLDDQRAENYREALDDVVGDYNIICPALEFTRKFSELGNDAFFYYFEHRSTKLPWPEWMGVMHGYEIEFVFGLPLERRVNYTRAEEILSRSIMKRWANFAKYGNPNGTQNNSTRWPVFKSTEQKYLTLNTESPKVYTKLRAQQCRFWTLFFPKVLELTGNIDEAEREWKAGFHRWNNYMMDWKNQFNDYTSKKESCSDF

Use these answered entries as a reference point.
{"compound": "O=C(NCCCCCCCCNc1c2c(nc3ccccc13)CCCC2)c1cc(Cl)cc(Cl)c1 [Compound 3g]", "experimental.target": "BuChE from equine serum (Equus caballus, UniProt P81908)", "IC50": "607 nM"}
{"compound": "O=C(NCCCCCCCCCNc1c2c(nc3ccccc13)CCCC2)c1cc(Cl)cc(Cl)c1 [Compound 3h]", "experimental.target": "BuChE from equine serum (Equus caballus, UniProt P81908)", "IC50": "324 nM"}
{"compound": "O=C(NCCCCCCNc1c2c(nc3ccccc13)CCCC2)c1cc(Cl)cc(Cl)c1 [Compound 3e]", "experimental.target": "BuChE from equine serum (Equus caballus, UniProt P81908)", "IC50": "> 20000 nM"}

Query: Fill in the blank: the reported IC50 of O=C(NCCCNc1c2c(nc3ccccc13)CCCC2)c1cc(Cl)cc(Cl)c1 [Compound 3b] is ____.
Reply: 24 nM

Query: May I ask what IC50 has been recorded for Cl.O=C(NCCNc1c2c(nc3ccccc13)CCCC2)c1cc(Cl)cc(Cl)c1 [Compound 3a] ?
Reply: 140 nM

Query: Recorded IC50 of O=C(NCCCCCCCNc1c2c(nc3ccccc13)CCCC2)c1cc(Cl)cc(Cl)c1 [Compound 3f] , please.
Reply: 33 nM

Query: What IC50 value was documented for this compound, O=C(NCCCCNc1c2c(nc3ccccc13)CCCC2)c1cc(Cl)cc(Cl)c1 [Compound 3c] ?
Reply: 123 nM

Query: Quick one: IC50 of O=C(NCCCCCNc1c2c(nc3ccccc13)CCCC2)c1cc(Cl)cc(Cl)c1 [Compound 3d] ?
Reply: > 20000 nM
